Target: T1, B-cat-Halo (beta-catenin HaloTag NanoBRET construct expressed in HEK293 cells) (UniProt P35222 2-781)
T1 sequence (looked up): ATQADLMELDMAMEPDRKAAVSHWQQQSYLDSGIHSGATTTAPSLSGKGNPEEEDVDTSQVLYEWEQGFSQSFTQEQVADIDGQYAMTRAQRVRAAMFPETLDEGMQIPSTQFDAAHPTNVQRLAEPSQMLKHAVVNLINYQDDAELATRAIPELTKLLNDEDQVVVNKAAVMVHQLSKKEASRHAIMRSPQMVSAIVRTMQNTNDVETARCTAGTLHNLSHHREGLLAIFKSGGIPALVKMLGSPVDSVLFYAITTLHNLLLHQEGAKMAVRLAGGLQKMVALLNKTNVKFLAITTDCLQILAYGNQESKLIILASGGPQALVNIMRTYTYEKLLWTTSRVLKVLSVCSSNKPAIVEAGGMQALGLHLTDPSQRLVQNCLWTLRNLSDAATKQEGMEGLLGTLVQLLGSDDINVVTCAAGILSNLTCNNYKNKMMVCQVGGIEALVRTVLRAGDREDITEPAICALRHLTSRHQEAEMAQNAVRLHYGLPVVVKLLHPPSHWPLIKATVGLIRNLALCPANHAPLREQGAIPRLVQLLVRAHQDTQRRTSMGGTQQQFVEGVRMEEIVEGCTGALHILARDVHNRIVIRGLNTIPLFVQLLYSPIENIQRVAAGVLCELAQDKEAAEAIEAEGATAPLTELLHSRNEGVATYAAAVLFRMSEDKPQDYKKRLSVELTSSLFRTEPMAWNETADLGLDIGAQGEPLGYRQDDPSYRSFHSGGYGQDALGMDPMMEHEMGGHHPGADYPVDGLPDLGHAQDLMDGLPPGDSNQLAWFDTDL
Test: cell-based or functional assay
Starred links: 1 amine or outer side, 2 acyl side, 3 side chain; linkers in the order of their positions; H or OH if unused. Positions of bridges follow the written chain, without caps; N, C: chain ends. Non-standard residues stand in square brackets, D forms with d. Primed or numbered codes have the meaning given here. PyrS2″ = (S)-3-amino-1-((pent-4-en-1-yloxy)carbonyl)pyrrolidine-3-carboxylic acid (stapling residue), C=CCCCOC(=O)N1CC[C@@](N[*:1])(C(=O)[*:2])C1; B5(4) = 2,2-bis(4-pentenyl)glycine = 2-amino-2-(pent-4-en-1-yl)hept-6-enoic acid (stitching residue), C=CCCCC(CCCC=C)(N[*:1])C(=O)[*:2]; B5(3) = 2,2-bis(4-pentenyl)glycine (stitching residue), C=CCCCC(CCCC=C)(N[*:1])C(=O)[*:2]; Phe(2-Cl) = N[C@@H](Cc1ccccc1Cl)C(=O)O; Bta = N[C@@H](Cc1csc2ccccc12)C(=O)O; αAllylPro = C=CC[C@@]1(C(=O)O)CCCN1; tBuAla = CC(C)(C)C[C@H](N)C(=O)O; S8 = C=CCCCCCC[C@](C)(N)C(=O)O; Thr(ol) = C[C@@H](O)[C@H](N)CO; Phe(ol) = N[C@H](CO)Cc1ccccc1
Label MET when NanoBRET Abs IC50 is at or above 10 µM; anything below gets NOT MET.

binder	class name
Ac-[αAllylPro]D[tBuAla][B5(3)]DDAAFN[PyrS2″][Phe(2-Cl)][Bta][Thr(ol)] (staple 1-4, 4-11) [I-1082]	MET
Ac-[αAllylPro]D[tBuAla][B5(3)]DDAAFT[S8][Phe(2-Cl)][Bta]T-NH2 (staple 1-4, 4-11) [I-1090]	NOT MET
Ac-[αAllylPro]D[tBuAla][B5(3)]DEAAFT[S8][Phe(2-Cl)][Bta]T-NH2 (staple 1-4, 4-11) [I-1091]	MET
Ac-[αAllylPro]D[tBuAla][B5(3)]DDAAFN[PyrS2″][Phe(2-Cl)][Bta][Phe(ol)] (staple 1-4, 4-11) [I-1083]	MET
Ac-[αAllylPro]D[tBuAla][B5(4)]DDAAFL[PyrS2″]F[Bta]Q-NH2 (staple 1-4, 4-11) [I-1072]	MET
Ac-[αAllylPro]D[tBuAla][B5(3)]DEAAFT[S8][Phe(2-Cl)][Bta]Q-NH2 (staple 1-4, 4-11; also: later eluting staple isomer) [I-1089]	NOT MET
Ac-[αAllylPro]D[tBuAla][B5(3)]DEAAFT[S8][Phe(2-Cl)][Bta]Q-NH2 (staple 1-4, 4-11; also: earlier eluting staple isomer) [I-1088]	NOT MET
Ac-[αAllylPro]D[tBuAla][B5(4)]DDAAFN[PyrS2″][Phe(2-Cl)][Bta]Q-NHEt (staple 1-4, 4-11) [I-1079]	MET
